The following molecules are listed with their measured log10 IC50 values.
- System: production of prostaglandin E2 by human fibroblasts
- protocol.text: Inhibition of Production of Prostaglandin E2 in Human Fibroblasts (IL-1 stimulation)
- Format: cell-based
- condition: Fibroblast; human fibroblasts under stimulation with IL-1
Transform log10 | Measure IC50 | Unit nM

{"molecule": "O=C1NC(=O)/C(=C/c2ccc(C(=O)NC[C@@H]3C[C@@H](Oc4ccccc4-c4ccccc4)CN3C(=O)c3ccccc3C(=O)c3ccc(F)cc3)cc2)S1 [Compound A-67]", "log10 IC50": 2.59}
{"molecule": "O=C1NC(=O)/C(=C/c2ccc(C(=O)NC[C@@H]3C[C@@H](Oc4ccc(/C=C/c5ccccc5)cc4)CN3C(=O)c3ccccc3C(=O)c3ccc(F)cc3)cc2)S1 [Compound A-82]", "log10 IC50": 1.65}

Indicate its recorded log10 IC50; the molecule in question is CN(Cc1ccccc1-c1ccccc1)[C@@H]1C[C@@H](C(=O)Nc2ccc(/C=C3\SC(=S)NC3=O)cc2)N(C(=O)c2ccccc2C(=O)c2ccc(F)cc2)C1 [Compound N-3]
3.00

Indicate its recorded log10 IC50; the molecule in question is CN(Cc1ccccc1-c1ccccc1)[C@@H]1C[C@@H](CNC(=O)c2ccc(/C=C3\SC(=O)NC3=O)cc2)N(C(=O)c2ccccc2C(=O)c2ccc(F)cc2)C1 [Compound M-6]
3.18

Indicate its recorded log10 IC50; the molecule in question is O=C1NC(=O)/C(=C/c2ccc(C(=O)NC[C@@H]3C[C@@H](Oc4cccc(-c5ccccc5)c4)CN3C(=O)c3ccccc3C(=O)c3ccc(F)cc3)cc2)S1 [Compound A-69]
2.28

Recorded values, source patent US6147100A.
